Biological target: T1, PD-L2 (Sino Biological, Cat #10292-H08H) (UniProt Q9BQ51 20-219)
T1 sequence (looked up): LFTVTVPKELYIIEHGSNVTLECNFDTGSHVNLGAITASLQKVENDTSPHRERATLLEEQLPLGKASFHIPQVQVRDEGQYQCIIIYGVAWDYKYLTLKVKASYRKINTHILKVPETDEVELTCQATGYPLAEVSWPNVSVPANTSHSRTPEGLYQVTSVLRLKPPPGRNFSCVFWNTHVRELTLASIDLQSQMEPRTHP
Assay: ELISA
reported-metric: binding result

INSERT INTO results (binder, reported_metric, reported_value) VALUES
  ('33H7 (antibody, human IgG1, V domains shown) VH: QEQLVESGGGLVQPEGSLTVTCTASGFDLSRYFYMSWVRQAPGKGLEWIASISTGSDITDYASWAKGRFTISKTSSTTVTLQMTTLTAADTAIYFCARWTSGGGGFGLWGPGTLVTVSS VL: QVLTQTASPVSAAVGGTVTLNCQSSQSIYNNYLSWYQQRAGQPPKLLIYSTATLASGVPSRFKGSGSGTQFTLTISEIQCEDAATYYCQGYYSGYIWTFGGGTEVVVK', 'binding result', 'no binding'),
  ('28B3 (antibody, human IgG1, V domains shown) VH: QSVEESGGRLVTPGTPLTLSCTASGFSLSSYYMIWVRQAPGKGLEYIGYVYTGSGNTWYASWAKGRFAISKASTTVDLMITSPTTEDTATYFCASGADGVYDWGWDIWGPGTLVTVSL VL: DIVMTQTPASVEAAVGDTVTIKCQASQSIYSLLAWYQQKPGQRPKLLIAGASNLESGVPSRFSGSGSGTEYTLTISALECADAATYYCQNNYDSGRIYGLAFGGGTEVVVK', 'binding result', 'no binding'),
  ('57F11 (antibody, human IgG1, V domains shown) VH: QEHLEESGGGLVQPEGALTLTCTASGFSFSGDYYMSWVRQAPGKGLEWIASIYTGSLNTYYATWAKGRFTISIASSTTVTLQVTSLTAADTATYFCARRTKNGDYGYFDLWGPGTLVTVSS VL: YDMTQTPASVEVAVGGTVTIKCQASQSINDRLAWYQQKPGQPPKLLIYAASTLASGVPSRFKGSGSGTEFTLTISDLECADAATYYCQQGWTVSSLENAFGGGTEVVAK', 'binding result', 'no binding');

The reported numbers originate from patent US20250171542A1.
